Biological target: soluble guanylate cyclase (sGC) (Homo sapiens, UniProt Q02108+Q02153)
Construct: endogenously expressing soluble guanylate cyclase (sGC); endogenous in cells; host or cells: HEK293
Sequence (Q02153 whole entry): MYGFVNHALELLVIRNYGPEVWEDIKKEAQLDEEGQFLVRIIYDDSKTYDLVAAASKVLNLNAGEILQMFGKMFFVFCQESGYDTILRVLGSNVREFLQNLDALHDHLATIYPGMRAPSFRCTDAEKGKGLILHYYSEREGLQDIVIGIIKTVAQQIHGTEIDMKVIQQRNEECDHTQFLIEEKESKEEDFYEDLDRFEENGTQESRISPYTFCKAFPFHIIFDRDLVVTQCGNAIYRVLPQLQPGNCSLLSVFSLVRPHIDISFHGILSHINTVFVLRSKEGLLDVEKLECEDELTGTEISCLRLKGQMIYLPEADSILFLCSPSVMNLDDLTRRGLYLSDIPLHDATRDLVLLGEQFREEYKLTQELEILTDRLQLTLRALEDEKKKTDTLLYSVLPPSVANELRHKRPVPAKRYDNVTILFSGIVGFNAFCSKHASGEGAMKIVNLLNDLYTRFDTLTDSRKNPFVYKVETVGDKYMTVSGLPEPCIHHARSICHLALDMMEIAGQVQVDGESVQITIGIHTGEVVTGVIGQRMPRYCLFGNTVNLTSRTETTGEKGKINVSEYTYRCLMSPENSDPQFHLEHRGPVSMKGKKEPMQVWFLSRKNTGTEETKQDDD
Sequence (Q02108 whole entry): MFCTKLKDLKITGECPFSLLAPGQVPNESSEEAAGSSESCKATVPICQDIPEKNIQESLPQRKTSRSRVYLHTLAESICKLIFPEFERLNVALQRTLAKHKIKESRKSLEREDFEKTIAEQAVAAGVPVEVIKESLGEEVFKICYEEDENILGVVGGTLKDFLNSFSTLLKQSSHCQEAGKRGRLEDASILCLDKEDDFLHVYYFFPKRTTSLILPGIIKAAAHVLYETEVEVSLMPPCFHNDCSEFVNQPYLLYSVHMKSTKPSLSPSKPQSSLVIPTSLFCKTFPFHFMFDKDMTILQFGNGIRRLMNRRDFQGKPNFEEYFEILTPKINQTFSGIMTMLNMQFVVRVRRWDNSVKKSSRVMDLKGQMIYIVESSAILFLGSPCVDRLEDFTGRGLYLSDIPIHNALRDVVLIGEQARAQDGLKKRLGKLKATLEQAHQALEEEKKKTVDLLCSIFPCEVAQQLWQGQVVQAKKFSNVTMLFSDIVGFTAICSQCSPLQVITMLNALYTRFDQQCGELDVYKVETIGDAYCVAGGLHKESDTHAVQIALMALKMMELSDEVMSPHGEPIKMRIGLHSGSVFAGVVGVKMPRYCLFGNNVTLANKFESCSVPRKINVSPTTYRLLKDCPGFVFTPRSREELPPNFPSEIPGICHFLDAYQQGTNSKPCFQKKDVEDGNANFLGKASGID
Test: sGC-HEK-cGMP assay (run with SNP incubation)
Assay type: cell-based
Details: in the presence of 10 μM SNP; top of concentration-response curve not fitted to 100%; Table 3D; read-out: HEK assay EC50-unconstrained

[
  {
    "Smiles entry": "Oc1nc(-c2cc(-c3ccon3)n(Cc3ccccc3F)n2)ncc1Sc1ccccc1",
    "EC50": "0.01 to 0.5 µM"
  },
  {
    "Smiles entry": "Fc1ccccc1Cn1nc(-c2ncc(Br)c(Cl)n2)cc1-c1ccon1",
    "EC50": "10 to 50 µM"
  },
  {
    "Smiles entry": "Nc1ccnc(-c2cc(-c3ccon3)n(Cc3cccc(F)c3F)n2)n1",
    "EC50": "10 to 50 µM"
  },
  {
    "Smiles entry": "Oc1nc(-c2cc(-c3ccon3)n(Cc3cccc(F)c3F)n2)ncc1F",
    "EC50": "0.01 to 0.5 µM"
  },
  {
    "Smiles entry": "Oc1nc(-c2cc(-c3ccon3)n(Cc3ccccc3F)n2)ncc1-c1ncco1",
    "EC50": "5 to 10 µM"
  }
]

Source listed as patent US20150342954A1.
